- assay_details: chemical genetic growth profiling, strain panel (AID 1159580);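 note: tested at 20 µM; growth read once vehicle control cultures reached saturation at 30 °C; 1 = growth at the plate median or of vehicle wells; lower values mean less growth of the strain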
- recorded_conditions: S. cerevisiae deletion strains, growth OD, locus YJR043C, strain POL32, hits give low values
Hit rate of the full screen: of about 5,500 compounds, about 2,000 (36%) were called active. Not shown: some 18% with an inconclusive outcome. This is one part of the list.
readout_type: normalized growth
API note: the answer field is a bare number with no unit suffix.

Data point: `COc1ccc(NS(=O)(=O)c2ccc(N)cc2)nn1` ; normalized growth = 1.01

Data point: `O=[N+]([O-])c1ccc(NCCCCCO)nc1` ; normalized growth = 0.981

Data point: `O=C1NS(=O)(=O)c2ccccc21` ; normalized growth = 0.977

Data point: `N=C(N)SCc1c(F)cccc1Cl` ; normalized growth = 0.99

Data point: `O=C(NNC(=O)c1ccc[nH]1)Nc1cc(Cl)cc(Cl)c1` ; normalized growth = 1.01

Data point: `O=C(O)CCC(=O)OC[C@@H](NC(=O)C(Cl)Cl)[C@H](O)c1ccc([N+](=O)[O-])cc1` ; normalized growth = 0.977

Data point: CCOC(=O)CCC(C#N)(c1ccc(Cl)cc1)N1CCOCC1 (centres undefined) ; normalized growth = 1.02

Data point: COC(=O)C(Cc1c[nH]c2ccccc12)NC(=O)c1c(Cl)cccc1Cl (centres undefined) ; normalized growth = 1

Data point: `CNC(=O)Oc1cccc2c1OC(C)(C)C2` ; normalized growth = 1.01

Data point: C[N+]12CCC(CC1)C(OC(=O)C(O)(c1ccccc1)c1ccccc1)C2 (centres undefined) ; normalized growth = 0.99

Data point: CC1CN=C(NC2CCCCC2)S1 (centres undefined) ; normalized growth = 0.982

Data point: `Cc1cc(NC(=O)Nc2cccc(C(F)(F)F)c2)n(C)n1` ; normalized growth = 0.998

Data point: `CC(C)(C)c1cc(C(=O)NN)n[nH]1` ; normalized growth = 0.997

Data point: `Cc1cc2c(cc1C)CSC(C)(c1ccc(F)cc1)SC2` ; normalized growth = 0.982

Data point: `Cc1cc(S(=O)(=O)NCCNc2nccc(C(F)(F)F)n2)c(C)cc1Cl` ; normalized growth = 1.01

Data point: `CCOC(=O)c1cnc(SCC(=O)c2ccc(Cl)cc2Cl)[nH]1` ; normalized growth = 0.999

Data point: `CCCCC#Cc1ccc(C(=O)NNC(=O)Nc2cc(Cl)cc(Cl)c2)o1` ; normalized growth = 0.998

Data point: `Cc1cc(C(F)(F)F)n2nc(-c3ccc(C(C)(C)C)cc3)cc2n1` ; normalized growth = 1.01

Data point: `N#CCC(=O)N(Cc1ccccc1F)C(=O)NC1CCCCC1` ; normalized growth = 0.994

Data point: `O=C(O)CC[N+](=O)[O-]` ; normalized growth = 0.98

Data point: COC(=O)CC1C(C)(C)C(=O)C2CC3(O)C4=CC(=O)OC(c5ccoc5)C4(C)CCC3C1(C)C2=O (centres undefined) ; normalized growth = 0.997

Data point: `COc1ccccc1NC(=S)NCCc1ccc(OC)c(OC)c1` ; normalized growth = 0.982

Data point: `CON` ; normalized growth = 1.01

Data point: `Cc1c(NC(C)C)c(=O)n(-c2ccccc2)n1C` ; normalized growth = 1

Data point: `Cc1cc(N=C(N)N=C(N)N)no1` ; normalized growth = 0.998

Data point: Cc1cc(S(=O)(=O)NC(Cc2ccc([N+](=O)[O-])cc2)C(=O)O)c(Cl)cc1Cl (centres undefined) ; normalized growth = 0.998

Data point: `O=c1c(O)c(-c2ccccc2)oc2ccccc12` ; normalized growth = 0.981

Data point: `Clc1cc(Cl)cc(Br)c1` ; normalized growth = 1.01

Data point: `Cn1nccc1NS(=O)(=O)c1ccc(C(C)(C)C)cc1` ; normalized growth = 0.978
